Target: T1, AibR (UniProt Q1D4I5 1-228)
T1 sequence: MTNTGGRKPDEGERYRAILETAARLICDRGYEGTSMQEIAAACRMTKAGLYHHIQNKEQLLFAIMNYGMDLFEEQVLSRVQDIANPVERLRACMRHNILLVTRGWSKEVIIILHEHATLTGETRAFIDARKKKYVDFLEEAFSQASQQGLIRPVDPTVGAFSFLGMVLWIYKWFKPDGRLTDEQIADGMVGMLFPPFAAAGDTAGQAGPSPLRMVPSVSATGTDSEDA
Assay: MST

[
  {
    "binder": "Cy5 21 bp operator (dsDNA) DNA 1: GCTACCTACCGGTCGGTAGGT DNA 2: ACCTACCGACCGGTAGGTAGC",
    "Kd": "2300 nM"
  }
]

# credit: paper PMC5389471
